# Assay name: chemical genetic growth profiling, strain panel (AID 1159580);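 further: tested at 20 µM; growth read once vehicle control cultures reached saturation at 30 °C; 1 = growth at the plate median or of vehicle wells; lower values mean less growth of the strain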
# Test settings: S. cerevisiae deletion strains, growth OD, locus YJL187C, strain SWE1 (second series), hits give low values
About 2,000 (36%) of roughly 5,500 compounds were called active. About 18% were inconclusive and are not listed. Some of the results follow.
Measure name: normalized growth
Output: the number by itself.

Would you mind telling me what normalized growth value was observed for CCOP(=S)(OCC)SCSP(=S)(OCC)OCC ?
0.984

Would you mind telling me what normalized growth value was observed for CCOP(=S)(OCC)Oc1ccc2c(C)c(Cl)c(=O)oc2c1 ?
0.981

Would you mind telling me what normalized growth value was observed for CCOP(=S)(OCC)SCCSCC ?
0.979

Would you mind telling me what normalized growth value was observed for COc1cc(/C=C/C(=O)O)cc(OC)c1OC ?
1.01

Would you mind telling me what normalized growth value was observed for CC1=C(/C=C/C(C)=C/C=C/C(C)=C\C(=O)O)C(C)(C)CCC1 ?
0.986

Now for a further molecule.
Would you mind telling me what normalized growth value was observed for CCOC(=O)CCCCCCCCCCCCC1C=CCC1 (stereo not drawn) ?
0.0498

----------
# Assay name: chemical genetic growth profiling, strain panel (AID 1159580);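 further: tested at 20 µM; growth read once vehicle control cultures reached saturation at 30 °C; 1 = growth at the plate median or of vehicle wells; lower values mean less growth of the strain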
# Test settings: S. cerevisiae deletion strains, growth OD, locus YLR113W, strain HOG1, hits give low values
The whole screen tested about 5,500 compounds, of which about 2,000 (36%) were called active. Another 18% or so got no clear call; they are omitted. The list shows a part of the results.
Measure name: normalized growth

Would you mind telling me what normalized growth value was observed for CN1CC(=O)N2[C@H](c3ccc4c(c3)OCO4)c3[nH]c4ccccc4c3C[C@@H]2C1=O ?
0.968 (inactive)

Would you mind telling me what normalized growth value was observed for CC(=O)OCC(=O)[C@@]12OC(C)(C)O[C@@H]1CC1C3C[C@H](F)C4=CC(=O)C=C[C@]4(C)[C@@]3(F)[C@@H](O)C[C@@]12C (stereo partly drawn) ?
1.02 (inactive)

Would you mind telling me what normalized growth value was observed for c1cc2c(cc1[C@H]1OC[C@H]3[C@@H]1CO[C@H]3c1ccc3c(c1)OCO3)OCO2 ?
0.865 (inactive)

Would you mind telling me what normalized growth value was observed for COc1ccc(-c2cc(C(F)F)nn2-c2ccc(S(N)(=O)=O)cc2)cc1F ?
1.05 (inactive)

Would you mind telling me what normalized growth value was observed for CC(=O)O[C@H]1C[C@@H](OC(C)=O)C(C)(C)C2C[C@@H](OC(C)=O)[C@]3(C)C(CC[C@@]4(C)[C@H](c5ccoc5)C(=O)[C@H]5O[C@]543)[C@]21C (stereo partly drawn) ?
1.03 (inactive)

Would you mind telling me what normalized growth value was observed for O=C(/C=C/c1ccc(O)c(O)c1)O[C@@H]1C[C@](O)(C(=O)O)C[C@@H](O)[C@H]1O ?
1 (inactive)

Would you mind telling me what normalized growth value was observed for COS(C)(=O)=O ?
0.983 (inactive)

Would you mind telling me what normalized growth value was observed for N[C@@H](CCC(=O)N[C@@H](CCSC(CC(=O)O)C(=O)O)C(=O)NCC(=O)O)C(=O)O (stereo partly drawn) ?
1 (inactive)

----------
# Assay name: chemical genetic growth profiling, strain panel (AID 1159580);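 further: tested at 20 µM; growth read once vehicle control cultures reached saturation at 30 °C; 1 = growth at the plate median or of vehicle wells; lower values mean less growth of the strain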
# Test settings: S. cerevisiae deletion strains, growth OD, locus YIL066C, strain RNR3
In all, about 5,500 compounds went through this assay and about 2,000 (36%) were called active. Roughly 18% stayed inconclusive and do not appear here. Cut-off read from the data, not from the text of the source: active = normalized growth mostly below about 0.91 (no sharp cut-off); inconclusive = no clear call, values can overlap the other calls; inactive = mostly above about 0.92. The list shows a part of the results.
Lab note: assign the record to one of t = active, f = inactive

Short answer needed: outcome of this test for CCOC(=O)C1=C[C@]2(CC)CCCN3CCc4c(n1c1ccccc41)[C@@H]32 ?
f

Short answer needed: outcome of this test for NCc1ccc(S(N)(=O)=O)cc1 ?
f

Short answer needed: outcome of this test for CCCSP(=O)(OCC)SCCC ?
f

Further cases:
Short answer needed: outcome of this test for COC(=O)[C@H]1[C@H]2C[C@@H]3c4[nH]c5cc(OC)ccc5c4CCN3C[C@H]2C[C@@H](OC(=O)c2cc(OC)c(OC)c(OC)c2)[C@@H]1OC ?
f

Short answer needed: outcome of this test for O=C1N=C(O)CN1/N=C\c1ccc(-c2ccc([N+](=O)[O-])cc2)o1 ?
f

Short answer needed: outcome of this test for CN(Cc1cc(Br)cc(Br)c1N)C1CCCCC1 ?
f

Short answer needed: outcome of this test for COc1ccccc1-c1cc(=O)c2c(OC)cccc2o1 ?
f

Short answer needed: outcome of this test for CO[C@@H]1C[C@@H](C[C@H]2CC[C@H](C)[C@H]([C@@H](C)C(=O)O)O2)O[C@]2(O[C@](C)([C@H]3CC[C@@](C)(C4O[C@@H](C5O[C@@](O)(CO)[C@H](C)C[C@@H]5C)C[C@@H]4C)O3)C[C@H]2C)[C@@H]1C (some centres undefined) ?
f
